Where these numbers come from: PubChem BioAssay (NCI)

# reported TGI; entries follow
- Tested on: U251 CNS
- assayMethodText: NCI tumour cell line growth inhibition, 48 h

Below are worked cases with known answers.
CC[C@](O)(CC(=O)O[C@H]1C(=O)O[C@@H]2C[C@H]3C(C)=CC(=O)[C@@H](O)[C@]3(C)[C@H]3[C@@]4(O)OC[C@]32[C@@H]1[C@@H](C)[C@H]4O)C(C)C
< 0.01 µM
COc1cc(OC)c(/C=C/S(=O)(=O)Cc2cnc(OC)c(N)c2)c(OC)c1
> 100 µM
N=c1oc2ccc([N+](=O)[O-])cc2cc1C(=O)NCc1ccccc1
83 µM
CCOC(=O)C1=CN/C(=C(/C)C(=O)OC)SC1C(=O)OCC (centres undefined)
> 100 µM

// below: TGI requested for another compound
Under U251 CNS: report TGI of `CN1CCC2(CC1)SC[C@H]1C(=O)N(c3ccc(Cl)cc3)C(=O)N12` . > 100 µM
